System: Malme-3M
Procedure Summary: Growth inhibition of human MALME-3M cells incubated for 48 hrs by sulforhodamine B assay
Format: functional, cell-based
Condition Summary: read-out: LC50 (the source's name)
Recorded CC50 values for a group of molecules are listed next.
Measurement Kind: CC50

Molecular String	Assayed System	Result
COc1cc(Cl)cc(-c2nn(-c3cccc(NC(=O)Nc4cc(C(F)(F)F)cc(C(F)(F)F)c4)c3)cc2-c2ccncc2)c1	Malme-3M	> 100 µM
COc1cc(Cl)cc(-c2nn(-c3cccc(NC(=O)c4ccc(N5CCOCC5)c(C(F)(F)F)c4)c3)cc2-c2ccncc2)c1	Malme-3M	> 100 µM
O=C(Nc1cccc(-n2cc(-c3ccncc3)c(-c3cc(O)cc(Cl)c3)n2)c1)c1cc(C(F)(F)F)cc(C(F)(F)F)c1	Malme-3M	> 100 µM
O=C(Nc1cccc(-n2cc(-c3ccncc3)c(-c3cc(O)cc(Cl)c3)n2)c1)Nc1ccc(Cl)c(C(F)(F)F)c1	Malme-3M	24.3 µM

====

System: NCI-H460
Procedure Summary: Growth inhibition of human NCI-H460 cells assessed as cell growth at 10 uM incubated for 48 hrs by sulforhodamine B assay relative to control
Type: functional
Condition Summary: NCI-H460, 48 h, read-out: Activity
Recorded growth at 10 µM values for a group of molecules are listed next.

Molecular String	Assayed System	Unit Label	growth at 10 µM
O=C(Nc1cccc(-n2cc(-c3ccncc3)c(-c3cc(O)cc(Cl)c3)n2)c1)c1cc(C(F)(F)F)cc(C(F)(F)F)c1	NCI-H460	%	19.9
COc1cc(Cl)cc(-c2nn(-c3cccc(NC(=O)Nc4cc(C(F)(F)F)cc(C(F)(F)F)c4)c3)cc2-c2ccncc2)c1	NCI-H460	%	0.24
O=C(Nc1cccc(-n2cc(-c3ccncc3)c(-c3cc(O)cc(Cl)c3)n2)c1)Nc1ccc(Cl)c(Cl)c1	NCI-H460	%	0.21
COc1cc(Cl)cc(-c2nn(-c3cccc(NC(=O)c4cccc(C(F)(F)F)c4)c3)cc2-c2ccncc2)c1	NCI-H460	%	41.1
COc1cc(Cl)cc(-c2nn(-c3cccc(NC(=O)Nc4ccc(Cl)c(C(F)(F)F)c4)c3)cc2-c2ccncc2)c1	NCI-H460	%	2.76

====

Test system: NCI-H322M
Procedure Summary: Growth inhibition of human NCI-H322M cells assessed as cell growth at 10 uM incubated for 48 hrs by sulforhodamine B assay relative to control
Assay type: functional
Condition Summary: read-out: Activity

Molecular String	growth at 10 µM / %
O=C(Nc1cccc(-n2cc(-c3ccncc3)c(-c3cc(O)cc(Cl)c3)n2)c1)Nc1ccc(Cl)c(C(F)(F)F)c1	45
O=C(Nc1cccc(-n2cc(-c3ccncc3)c(-c3cc(O)cc(Cl)c3)n2)c1)c1ccc(N2CCOCC2)c(C(F)(F)F)c1	43.5
COc1cc(Cl)cc(-c2nn(-c3cccc(NC(=O)c4cccc(C(F)(F)F)c4)c3)cc2-c2ccncc2)c1	78.6
O=C(Nc1cccc(-n2cc(-c3ccncc3)c(-c3cc(O)cc(Cl)c3)n2)c1)Nc1ccc(Cl)c(Cl)c1	19.5

====

Tested on: BT-549
Procedure Summary: Growth inhibition of human BT549 cells assessed as cell growth at 0.01 uM incubated for 48 hrs by sulforhodamine B assay relative to control
Type: functional
Condition Summary: BT-549, 48 h, read-out: Activity

Molecular String	Unit Label	growth at 0.01 µM
O=C(Nc1cccc(-n2cc(-c3ccncc3)c(-c3cc(O)cc(Cl)c3)n2)c1)c1cc(C(F)(F)F)cc(C(F)(F)F)c1	%	95
O=C(Nc1cccc(-n2cc(-c3ccncc3)c(-c3cc(O)cc(Cl)c3)n2)c1)c1ccc(N2CCOCC2)c(C(F)(F)F)c1	%	100
COc1cc(Cl)cc(-c2nn(-c3cccc(NC(=O)c4ccc(N5CCOCC5)c(C(F)(F)F)c4)c3)cc2-c2ccncc2)c1	%	104
COc1cc(Cl)cc(-c2nn(-c3cccc(NC(=O)Nc4cccc(C(F)(F)F)c4)c3)cc2-c2ccncc2)c1	%	107
